This collection of values is drawn from patent US8163907B2.

# Tested on: isolated rat's thoracic aorta ring
# PROTOCOL TEXT: Contraction of an isolated rat's thoracic aorta ring caused by KCl (vascular relaxation)
# Type: cell-based
# ASSAY CONDITIONS: 80 mmol/L KCl, isolated rat thoracic aorta ring with complete endodermis, n=6; read-out: IC50, inhibition of contraction of a vascular ring with complete endodermis caused by KCl
pIC50: −log10 of the molar value. Where a name gives a salt, the structure may show the parent alone.
ENDPOINT NAME: pIC50

Here are 2 compounds together with their reported answers.
compound="COC(=O)C1=C(C)NC(C)=C(C(=O)OCCN2CCN(CCOc3ccccc3OC)CC2)C1c1cccc([N+](=O)[O-])c1 (centres unmarked) [Compound I14, hydrochloride]" tgt="isolated rat's thoracic aorta ring" endpoint_name=pIC50 observed_result=6.70
compound="COC(=O)C1=C(C)NC(C)=C(C(=O)OCCCN2CCN(CCOc3ccccc3OC)CC2)C1c1cccc([N+](=O)[O-])c1 (centres unmarked) [Compound I4, hydrochloride]" tgt="isolated rat's thoracic aorta ring" endpoint_name=pIC50 observed_result=5.70

[1] COC(=O)C1=C(C)NC(C)=C(C(=O)OCCN2CCN(CCOC(c3ccccc3)c3ccccc3)CC2)C1c1cccc([N+](=O)[O-])c1.Cl (centres unmarked) [Compound I6, hydrochloride]
[2] COC(=O)C1=C(C)NC(C)=C(C(=O)OCCCCN2CCN(CCOc3ccccc3OC)CC2)C1c1cccc([N+](=O)[O-])c1.Cl (centres unmarked) [Compound I5, hydrochloride]
[3] COC(=O)C1=C(C)NC(C)=C(C(=O)OCCCN2CCN(CC(O)COc3ccccc3OC)CC2)C1c1cccc([N+](=O)[O-])c1.Cl (centres unmarked) [II2, hydrochloride]
Let's sort these by pIC50, smallest first. Go ahead? Response field: labels, in requested order.
1, 3, 2
(1: 5.72, 3: 6.10, 2: 6.30)
